target: TEAD2 (Homo sapiens (Human), UniProt Q15562); assay: In vitro palmitoylation (TEAD2 autopalmitoylation, streptavidin blot); assay type: biochemical; conditions: compound at 10 μM; Table 3
Sequence (Q15562 whole entry): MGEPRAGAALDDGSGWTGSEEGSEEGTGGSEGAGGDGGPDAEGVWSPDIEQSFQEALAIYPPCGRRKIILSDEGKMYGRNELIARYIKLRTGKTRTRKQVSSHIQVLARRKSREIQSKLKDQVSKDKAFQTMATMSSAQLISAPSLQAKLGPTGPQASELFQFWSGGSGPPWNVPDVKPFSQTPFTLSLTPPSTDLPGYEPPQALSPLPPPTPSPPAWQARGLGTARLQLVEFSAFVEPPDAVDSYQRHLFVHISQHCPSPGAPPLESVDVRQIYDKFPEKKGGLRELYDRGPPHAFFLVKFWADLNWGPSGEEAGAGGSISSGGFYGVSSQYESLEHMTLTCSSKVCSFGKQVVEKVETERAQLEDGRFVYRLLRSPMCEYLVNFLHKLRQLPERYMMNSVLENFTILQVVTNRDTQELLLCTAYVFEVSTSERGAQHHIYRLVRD
Listed next: entries and their corresponding inhibition at 10 µM.
Answer format: numeric, % implied, no suffix.

Sample records with inhibition at 10 µM:
[
  {
    "Compound": "COc1ccc(Nc2ccc(N(C)c3cc(C(F)(F)F)nn3C)cc2)c(C(=O)O)c1",
    "Numeric readout": 15
  },
  {
    "Compound": "COc1ccc(Nc2ccc(N(C)c3ccc(C4CCC(C(F)(F)F)CC4)cc3)cc2)c(C(=O)O)c1 (centres unmarked)",
    "Numeric readout": 83
  },
  {
    "Compound": "COc1ccc(Nc2ccc(N(C)c3ccc(SC(F)(F)F)cc3)cc2)c(C(=O)O)c1",
    "Numeric readout": 94
  }
]

Please examine the following record next.
Q: Which measured inhibition at 10 µM value corresponds to `O=C(O)c1ccccc1Nc1ccc(Oc2ccc(C(F)(F)F)cc2Cl)cc1` ?
Ans: 98
